- Tested on: OVCAR-8 ovarian
- ASSAY INFO: NCI tumour cell line growth inhibition, 48 h
Provide the recorded TGI for the entries that follow.

Can you give me TGI for all of these, one by one?
1. CC1(C)CC(=O)C(/C=N/c2nc(-c3ccccc3)cs2)=C(O)C1
2. C=C(C)C1CCC2(C(=O)O)CCC3(C)C(CCC4C5(C)CCC(OC(=O)NCc6ccccc6)C(C)(C)C5CCC43C)C12 (stereo not drawn)

Completion:
1: > 100 µM; 2: > 100 µM

Prompt: For the compound N.N.O=C([O-])P(=O)([O-])[O-].[Na+].[Pt+4] , what TGI is on record?
Completion: > 100 µM

Ref: PubChem BioAssay (NCI)
